Target: acetylcholine receptor
Assay: SPR, AchR on chip, peptide 10 uM
readoutKind: Binding affinity (RU)
Return type: number; implicit unit RU.

RGYCK [5mer-38]
53
KQVSR [5mer-39]
67
KSVCR [5mer-40]
67
KGVRR [5mer-47]
70
KSYYR [5mer-306]
74
KQVRR [5mer-207]
72

Value lookup for Binding affinity (RU); key = RWYRR [5mer-341]
52

Query (binder): KQRLR [5mer-11] ; field requested: Binding affinity (RU)
84
